- ASSAY_COMMENT: Pharmacokinetics in nonhuman primates
- Type: in vivo, Cynomolgus monkeys
- PROTOCOL_CONDITIONS: cynomolgus monkey, plasma, iv, 5 mg/kg
READOUT: AUC (ng·h/mL)

1. CN(C)c1ccc(O)c2c1C[C@H]1C[C@H]3[C@H](N(C)C)C(O)=C(C(N)=O)C(=O)[C@@]3(O)C(O)=C1C2=O [Minocycline, minocycline]
2. CN(C)c1cc(NC(=O)CNC(C)(C)C)c(O)c2c1C[C@H]1C[C@H]3[C@H](N(C)C)C(O)=C(C(N)=O)C(=O)[C@@]3(O)C(O)=C1C2=O [Tigecycline, tigecycline]
Quick one: lower AUC, 1 or 2 ? Please reply using the label of the selected record.
2
(2: 16300 ng·h/mL, 1: 27600 ng·h/mL)

----------
- ASSAY_COMMENT: Pharmacokinetics in nonhuman primates
- Format: in vivo, Cynomolgus monkeys
- PROTOCOL_CONDITIONS: cynomolgus monkey, plasma, iv, 2.6 mg/kg
READOUT: Cmax (µg/mL)
Entry rule: numbers only, all in µg/mL.

Quick one: Cmax of CN(C)c1cc(CNCC(C)(C)C)c(O)c2c1C[C@H]1C[C@H]3[C@H](N(C)C)C(O)=C(C(N)=O)C(=O)[C@@]3(O)C(O)=C1C2=O ?
1.88

----------
- ASSAY_COMMENT: Pharmacokinetics in nonhuman primates
- Assay type: in vivo, Cynomolgus monkeys
- PROTOCOL_CONDITIONS: cynomolgus monkey, plasma, po, 5 mg/kg
READOUT: Cmax (ng/mL)

• CN(C)c1cc(CNCC(C)(C)C)c(O)c2c1C[C@H]1C[C@H]3[C@H](N(C)C)C(O)=C(C(N)=O)C(=O)[C@@]3(O)C(O)=C1C2=O = 410

I. CN(C)c1cc(NC(=O)CNC(C)(C)C)c(O)c2c1C[C@H]1C[C@H]3[C@H](N(C)C)C(O)=C(C(N)=O)C(=O)[C@@]3(O)C(O)=C1C2=O
II. CN(C)c1ccc(O)c2c1C[C@H]1C[C@H]3[C@H](N(C)C)C(O)=C(C(N)=O)C(=O)[C@@]3(O)C(O)=C1C2=O
Between these two entries, I and II , state which has the higher Cmax. Please reply using the label of the selected record.
II
(II: 2200 ng/mL, I: 40 ng/mL)
